- measured_on: Voltage-gated potassium channel subunit beta-2 (Rattus norvegicus) (UniProt P62483)
- Sequence (P62483 whole entry, looked up): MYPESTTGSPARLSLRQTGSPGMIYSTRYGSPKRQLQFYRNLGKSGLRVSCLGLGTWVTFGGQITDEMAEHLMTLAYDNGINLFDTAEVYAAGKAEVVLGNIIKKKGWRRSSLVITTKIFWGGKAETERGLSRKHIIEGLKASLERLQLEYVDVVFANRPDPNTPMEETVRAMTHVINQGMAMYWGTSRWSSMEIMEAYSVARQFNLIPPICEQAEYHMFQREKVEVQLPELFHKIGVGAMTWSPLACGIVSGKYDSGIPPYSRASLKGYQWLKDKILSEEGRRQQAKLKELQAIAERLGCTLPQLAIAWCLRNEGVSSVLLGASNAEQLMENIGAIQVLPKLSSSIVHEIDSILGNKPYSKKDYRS
- assay_name: enhancers of rat Kvbeta2 NADPH turnover – biochemical, NADPH fluorescence, primary screen (AID 623);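 also: fluorescence intensity change per second fitted from 20 to 320 s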
- test_context: Recombinant KvBeta, NADPH fluorescence decrease slope, 10 min; at 10 µM; stronger effect = lower value
property: NADPH fluorescence slope

In [3]: df
Out[3]:
                                    compound   reported
 0  CC1CC(C)CN(c2ncnc3c2cnn3-c2ccc(Cl)cc2)C1 (centres undefined)     -2e-05
 1       COc1cc(C(=O)Nc2cc(C)ccn2)cc(OC)c1OC    3.1e-06
 2                CCSc1nnc(NC(=O)c2ccccn2)s1    3.3e-06
 3            Fc1cccc(Nc2cc(-n3cccn3)ncn2)c1   -7.2e-05
 4   CCOc1ccc(S(=O)(=O)n2nc(C)cc2C)c2ccccc12      2e-05
 5     COCc1ccccc1Cn1cnc2c1c(=O)n(C)c(=O)n2C   -3.6e-05
 6  CCOC(=O)c1cnc(SC2CC(=O)N(c3ccc(OC)c(OC)c3)C2=O)nc1N (centres undefined)    1.4e-05
 7  CCn1nc(CC(=O)Nc2nnc(CC(=O)N3CCCCC3)s2)c2ccccc2c1=O   -2.5e-05
 8   O=C(CSc1nnnn1-c1ccc2c(c1)OCO2)NCc1cccs1    9.8e-06
 9  COc1ccc(Br)cc1C1N2CC3(C)CN1CC(C)(C2)C3=O (centres undefined)  -0.000152
10  CC(C)C(c1nnnn1CC1CCCO1)N1CCN(Cc2ccc3c(c2)OCO3)CC1 (centres undefined)   -5.8e-05
11            COC(=O)c1sccc1NC(=O)c1csc(C)c1  -0.000107
12   O=C(NCCC1=CCCCC1)c1cc2c(s1)CS(=O)(=O)C2  -0.000138
13  C/C=C/CSc1nc2c(c(=O)[nH]c(=O)n2C)n1Cc1ccc(C)cc1   -3.9e-05
14  CCOC(=O)c1[nH]c(CSc2nnc(-c3ccncc3)n2CCOC)c(C(=O)OCC)c1C    1.9e-05
15                Fc1cccc(NCc2cn3ccccc3n2)c1   -1.6e-05
16  CCS(=O)(=O)NCCc1cc2c(OC)ccc(OC)c2[nH]c1=O   -3.1e-05
17            O=C(OCC(=O)c1ccccc1Br)c1ccccn1   -4.2e-05
18  CCCCOC(=O)CN1C(=O)c2ccc(C(=O)OCCCC)cc2C1=O   -2.2e-05
19  COCCN1CCN(c2c(C)c(C)nc3cc(-c4cccc(OC)c4)nn23)CC1   -3.9e-05
20                 Clc1ss/c(=N\c2ccccn2)c1Cl  -0.000216
21  Cc1ccccc1-c1nc(CN2CCC(C(=O)NC3CCN(Cc4ccccc4)CC3)CC2)c(C)o1     -3e-05
22  O=C(CSc1n[nH]c(-c2cccs2)n1)N1CCN(S(=O)(=O)c2ccccc2)CC1      3e-05
23      CCCC(=O)Nc1cc(C)c(NC(=O)c2ccccn2)cn1   -5.2e-05

====

- assay_name: inhibitors of TNFa-induced NFkB p65 translocation, primary screen, imaging, HUVEC, MLSMR starter and 10KST1 sets (AID 438);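 also: compound added about 3h40 before a 20 min TNFalpha stimulation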
- test_context: HUVEC TNFa-induced p65 nuclear translocation; measured here: nuclei count (cytotoxicity indicator), at 2.08 µM
# maps each entry to its cell count
property: cell count

                                    molecule  reported
 0  C/C(Cl)=C/Cn1c(SCc2ccc(Cl)cc2)nc2c1c(=O)[nH]c(=O)n2C       551
 1  CC(=O)c1cccc(N(CC(=O)N2CCCC2)S(C)(=O)=O)c1       529
 2    CCCN(CCC)C(=O)c1c(C)[nH]c(C(=O)OCC)c1C       740
 3  N#CC1=C(N)Oc2c(ccc3cccnc23)C1c1cccnc1 (stereo unspecified)       749
 4  COC(=O)c1ccc(C)c(NS(=O)(=O)c2ccc3c(c2)OCCO3)c1       263
 5  CC1CN(C(=O)c2cc3cc(Cl)cc(Cl)c3oc2=O)CC(C)O1 (stereo unspecified)       365
 6  COc1ccc(N(C)C(=O)CCS(=O)(=O)c2cccc3nonc23)c(OC)c1       557
 7  Cc1c(NC(=O)c2noc3c2CCc2ccccc2-3)c(=O)n(-c2ccccc2)n1C       620
 8  CCOC(=O)c1oc2ccccc2c1NC(=O)c1cccc(OC)c1OC       553
 9                   CCOc1ccccc1OCCCCN1CCCC1       608
10  O=C(Cn1nc(Cc2ccncc2)c2ccccc2c1=O)N1CCc2ccccc2C1       726

====

# maps each entry to its inhibition
- assay_name: endothelial E-selectin expression blockers – imaging, HUVEC, immunofluorescence, MLSMR starter and 10KST1 sets, primary screen (AID 487);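 also: signal is fraction of cell area covered by stained E-selectin grains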
- test_context: HUVEC TNFalpha-induced E-selectin immunofluorescence imaging, at 2 µM; stronger effect = higher value
Active and inactive are the calls of the source.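 How the source made its calls: active means visually confirmed hit in the image check and inhibition above 20%; inconclusive means visually confirmed hit but inhibition not above 20%; inactive means no visual hit in the image check.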
property: inhibition

>>> df
                                   compound    property           reported
0  COc1ccc(-n2nnnc2SCC(=O)c2ccc(O)c(O)c2)cc1  inhibition  -74.4% (inactive)
1  Cc1ccc(-n2c3c(cc(C(=O)NC4CCSC4=O)c2=O)C(=O)CC(C)(C)C3)cc1 (stereo unspecified)  inhibition  -48.3% (inactive)
2               Cc1ccc(N=Cc2ccc(O)cc2O)cc1F  inhibition  -98.5% (inactive)
3  CC(NS(=O)(=O)c1ccccc1)C(c1cccs1)N1CCN(C)CC1 (stereo unspecified)  inhibition   -262% (inactive)
4  COc1ccc(C2CC(c3ccco3)n3ncnc3N2)cc1 (stereo unspecified)  inhibition  -21.1% (inactive)
5  Cc1cc(C)cc(NC(=O)CCNS(=O)(=O)c2ccc3c(c2)oc(=O)n3C)c1  inhibition  -79.9% (inactive)

====

# maps each entry to its NADPH fluorescence slope
- measured_on: Voltage-gated potassium channel subunit beta-2 (Rattus norvegicus) (UniProt P62483)
- assay_name: enhancers of rat Kvbeta2 NADPH turnover – biochemical, NADPH fluorescence, primary screen (AID 623);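 also: fluorescence intensity change per second fitted from 20 to 320 s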
- test_context: Recombinant KvBeta, NADPH fluorescence decrease slope, 10 min; at 10 µM; stronger effect = lower value
property: NADPH fluorescence slope

>>> print(df.to_string())
                                   compound                               measured_on  reported
0  O=C(Nc1cnn(Cc2ccc(Cl)cc2Cl)c1)c1noc2c1CCCC2  Voltage-gated potassium channel subunit beta-2 (Rattus norvegicus) (UniProt P62483)  -2.6e-05
1  Cc1ccc2c(c1)nnn2C1CCN(C(=O)NC23CC4CC(CC(C4)C2)C3)CC1  Voltage-gated potassium channel subunit beta-2 (Rattus norvegicus) (UniProt P62483)    -4e-05
2  O=C(Cn1nc(Cc2ccncc2)c2ccccc2c1=O)N1CCc2ccccc2C1  Voltage-gated potassium channel subunit beta-2 (Rattus norvegicus) (UniProt P62483)  -2.1e-05
3  CCCc1c(O)nc(SCC(=O)NCCc2ccc(OC)c(OC)c2)[nH]c1=O  Voltage-gated potassium channel subunit beta-2 (Rattus norvegicus) (UniProt P62483)  -3.3e-05
4  [N-]=[N+]=CC(=O)CC(c1ccccc1)N1C(=O)c2ccccc2C1=O (stereo not given)  Voltage-gated potassium channel subunit beta-2 (Rattus norvegicus) (UniProt P62483)  -2.1e-05

====

- assay_name: reduction of polyQ htt aggregates in cells – imaging, exon1htt(103Q)mCFP cells, high-content imaging, primary screen (AID 483);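 also: compound exposure lasted 3 days before fixation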
- test_context: exon1htt(103Q)mCFP cell line, aggregate imaging, at 2 µM; stronger effect = higher value
We use -10% as the dividing line for inhibition of aggregation: on or above the line is MET, below is NOT MET.

>>> df
                                    compound  class_assignment
 0  CCCCCCn1c(SCC(=O)OC)nc2c1c(=O)[nH]c(=O)n2C               MET
 1  CCOc1cc(NC(=O)c2ccco2)c(OCC)cc1NC(=O)CCc1ccc(OC)cc1           NOT MET
 2  CCOc1ccc(N(CC)C(=O)COc2cc(=O)n(C)c3ccccc23)cc1           NOT MET
 3  CC(=O)NC(CCS(C)(=O)=O)C(=O)Nc1cc(C)on1 (stereo unspecified)               MET
 4  CC(=O)NC(Cc1ccccc1)C(=O)NC1CCN(C(=O)c2cnccn2)CC1 (stereo unspecified)               MET
 5  CCN(CC(=O)Nc1ccc(S(N)(=O)=O)cc1)S(=O)(=O)c1cc(C)ccc1OC               MET
 6  CCOC(=O)N1CCC(N(C(=O)Nc2cccc(OC)c2)C(C)CC)CC1 (stereo unspecified)           NOT MET
 7  CC1CCC(NC(=O)Cn2ncc3ccccc32)CC1 (stereo unspecified)           NOT MET
 8  CCOC(=O)c1cn(CC)c2cc(N3CCOCC3)c(F)cc2c1=O               MET
 9  COC(=O)c1cc2oc(C)cc2n1CC(=O)N(C)c1ccccc1               MET
10             Brc1ccccc1-c1nc(-c2ccccc2)no1           NOT MET
